Data origin: PubChem BioAssay (NCI)

test system: SK-MEL-28 melanoma; test: NCI tumour cell line growth inhibition, 48 h
Reported TGI values follow for various compounds
quantity.kind: TGI (µM)

compound	modifier.sign	value.measured
O=C1CSC(c2ccc(Cl)cc2Cl)N1c1ccc(Oc2ccc(Cl)cc2)c(Cl)c1 (stereo not drawn)	>	100
COc1ccc(-c2c3c(nc4n[nH]c(-c5ccc(Cl)cc5)c24)-c2ccccc2C(=O)C3=O)cc1	=	3.9
O=C(CCCN1CCC(C(O)c2ccc(F)cc2)CC1)c1ccc(F)cc1 (stereo not drawn)	=	118
CC1SC2(CCCCC2)N(NC(=O)c2[nH]c3ccc(Br)cc3c2-c2ccccc2)C1=O (stereo not drawn)	>	100
NC(CSSCC(N)C(=O)O)C(=O)O (stereo not drawn)	>	100
Cc1nc2sc(C(=O)c3ccc(Cl)cc3)c(N)c2c(-c2ccccc2Cl)c1C(=O)Nc1ccccc1	=	27.4
COC(=O)C1OC(O[C@H]2CC[C@]3(C)[C@H]4CC=C5[C@@H]6CC(C)(C)CC[C@]6(C(=O)OC6OCC(O)C(O)C6OC6OC(C)C(OC7OCC(O)C(O)C7O)C(OC7OCC(O)(CO)C7O)C6O)[C@H](O)C[C@@]5(C)[C@]4(C)CC[C@H]3C2(C)C)C(O)C(O)C1O (stereo partly drawn)	=	4.69
OC1COC2CC(Nc3ccccn3)OC12 (stereo not drawn)	>	100
